Here, each record is paired with measured residual hCCL1 (100 nM) Gi2 response, protocol #3, mAb 5 µg/mL data.
Subject of test: human CCR8 (human, UniProt P51685 1-355)
Test name: cell-based or functional assay
Kindly answer with a numeric value in %, unit omitted.

A selection of reference data follows.
>>> measurement("anti-CCR8 mAb 1-18 (antibody, V domains shown, Murine hybridoma mAb) VH: QVQVQQSGAELARPGASVKMSCKASGYTFTTYAMHWVKQRPGQGLEWIGHINPSSGYSNYNQKFKDKATLTADKSSSTAYMQLSSLTSEDSAVYYCARSEVRRGYFDVWGAGTTVTVSS VL: DIQMTQTTSSLSASLGDRVTISCRTSQDIRNYLNWYQQKPDGTVKLLISYTSRLHSGVPSRFSGSGSGTDYSLTISNLEQEDFATYFCQQGNTLPPTFGGGTRVEIK")
59
>>> measurement("anti-CCR8 mAb 1-3 (antibody, V domains shown, Murine hybridoma mAb) VH: KVQLQQSGPELVKPGASVKISCKTSGYTFTEYTIHWVQQIHGKSPEWIGGINPNGDTRYDQKFKGKATLTIDKSSSTAYMELRSLTSEDSAVYYCARVARFYGISPYAMDYWGQGTSVTVSS VL: DVVMTQTPLSLPVSLGDQASISCRCTQSLLHSNGDTYLHWYLQKPGQSPNLLIYKVSNRFSGVPDRFSGSGSGTDFTLKINRVEAEDLGVYFCSQSTHVPYTFGGGTNLEIK")
73

Let's switch to this binder now.
Look up residual hCCL1 (100 nM) Gi2 response, protocol #3, mAb 5 µg/mL for this binder: anti-CCR8 mAb 1-15 (antibody, V domains shown, Murine hybridoma mAb) VH: EVQLQQSGPELVKPGASVKISCKTSGYTFTEYTMHWVKQSHGKSLEWIGGINPNNGDTNYNQKFMGKATLTVDKSSSTAYMELRSLTSEDSAVYYCVRRLLRRGAMDYWGQGTSVTVSS VL: DIVLTQSPASLAVSLGQRATISCRASENVEYYGTSLMQWFQQKPGQPPKLLIYAASNVDSGVPARFSGSGSGTDFSLNIHPVEEDDIAMYFCQQSRKVPWTFGGGTKLDIK 67
